Assay: A CellTox Green Cytotoxicity Assay to monitor cytotoxicity in HepG2 cells - 16 hour (AID 1224876); also: % is scaled to controls: 0 for no effect and ±100 for the full control effect; nearly all actives have a fitted effect of over 45% in size
Details: CellTox Green fluorescence; series mostly up to 76.8 µM
Description: National Center for Advancing Translational Sciences [NCATS] NIH Chemical Genomics Center [NCGC] U.S. Environmental Protection Agency [EPA] National Institutes of Environmental Health Sciences [NIEHS] National Toxicology Program [NTP] Cell-based models are critical for drug discovery. […] Viable cells produce no appreciable increases in fluorescence. Therefore, the fluorescence signal produced by the binding interaction with dead cell DNA is proportional to cytotoxicity. […]
Inconclusive results are not listed. The source made the active and inactive calls. Calls follow the shape of the dose curve; as a rule, active = well fitted activation curve with a large enough effect in the repeat runs; inconclusive = weak or mixed curves; inactive = flat fitted curve, though single readings scatter.
Classes to choose from: active, inactive

>  <molecule>
CC(C)=CC1C(C(=O)OCc2coc(Cc3ccccc3)c2)C1(C)C (configuration not stated)

>  <label>
inactive

$$$$
>  <molecule>
C=C(C)[C@H]1Cc2c(ccc3c2O[C@@H]2COc4cc(OC)c(OC)cc4[C@@H]2C3=O)O1

>  <label>
inactive

$$$$
>  <molecule>
CC(C)Oc1cc(-n2nc(C(C)(C)C)oc2=O)c(Cl)cc1Cl

>  <label>
inactive

$$$$
>  <molecule>
O=[N+]([O-])c1cccc2ccccc12

>  <label>
inactive

$$$$
>  <molecule>
CCOC(=O)C(C)OC(=O)c1cc(Oc2ccc(C(F)(F)F)cc2Cl)ccc1[N+](=O)[O-] (configuration not stated)

>  <label>
inactive

$$$$
>  <molecule>
Nc1ccc(Cl)c(Cl)c1

>  <label>
inactive

$$$$

Tell me the recorded outcome of this test for CCC(C)(c1ccc(O)cc1)c1ccc(O)cc1 .
inactive

Try this molecule next: C[C@]12CCC(=O)C(O)=C1CC[C@@H]1[C@@H]2CC[C@]2(C)C(=O)CC[C@@H]12
inactive

Try this molecule next: CC(C)C(=O)OCC(C)(C)C(OC(=O)C(C)C)C(C)C (configuration not stated)
inactive

Try this molecule next: CCc1cccc(CC)c1N(COC)C(=O)CCl
inactive

====

test: A CellTox Green Cytotoxicity Assay to monitor cytotoxicity in HepG2 cells - 32 hour (AID 1224883); settings: CellTox Green fluorescence; series mostly up to 76.8 µM; also: % is scaled to controls: 0 for no effect and ±100 for the full control effect; nearly all actives have a fitted effect of over 50% in size
Records with an inconclusive call do not appear. Calls of active or inactive are those of the source. Calls come from the whole dose curve; as a rule, active = well fitted activation curve with a large enough effect in the repeat runs; inconclusive = weak or mixed curves; inactive = flat fitted curve, though single readings scatter.
Classes to choose from: y (active), n (inactive)

Tell me the recorded outcome of this test for c1ccc(NNc2ccccc2)cc1 .
n

Try this compound next: COC(=O)c1sccc1S(=O)(=O)NC(=O)Nc1nc(C)nc(OC)n1
n

Try this compound next: CCCCCCCCOC(=O)c1ccccc1C(=O)OCCCCCCCC
n

Try this compound next: Cc1ccc(N)c(N)c1
n

Try this compound next: C=CCc1ccc(OC)cc1
n

Try this compound next: COP(=S)(OC)Oc1cc(Cl)c(Cl)cc1Cl
n

====

assay: qHTS assay to identify small molecule agonists of the estrogen related receptor (ERR) signaling pathway from Tox21 library (AID 1224849); conditions: ERR reporter cell line, ONE-Glo luciferase, 18 h; at 92.4 µM (top of the series); also: % is scaled to controls: 0 for no effect and ±100 for the full control effect; nearly all actives have a fitted effect of over 15% in size
activity change, positive = activation below -10% gives 0; activity change, positive = activation at or above it gives 1.

Would you please look over these solved cases?
>  <smilesStr>
C[C@]12CCC(=O)C(O)=C1CC[C@@H]1[C@@H]2CC[C@]2(C)C(=O)CC[C@@H]12

>  <label>
0

$$$$
>  <smilesStr>
Oc1cc(Cl)ccc1Oc1ccc(Cl)cc1Cl

>  <label>
0

$$$$

Test whether the molecule Brc1ccc(Oc2cc(Br)c(Br)cc2Br)c(Br)c1 records activity change, positive = activation of -10% or higher.
0

Try this molecule next: Oc1ccc(-c2ccccc2)cc1
1

Try this molecule next: Nc1ccc(Cl)cc1N
1

Try this molecule next: CCOP(=S)(OCC)O/N=C(\C#N)c1ccccc1
1

====

target: Cytochrome P450 3A4 (Homo sapiens); assay: Cytochrome P450 Family 3 Subfamily A Member 4 (CYP3A4) small molecule antagonists: luciferase reporter qHTS assay (AID 1671201); details: P450-Glo CYP3A4 enzyme, luciferin luminescence, 1 h; series mostly up to 115 µM; also: % is scaled to controls: 0 for no effect and ±100 for the full control effect; nearly all actives have a fitted effect of over 50% in size
Results filed as inconclusive are left out. The source made the active and inactive calls. Calls come from the whole dose curve; as a rule, active = well fitted inhibition curve with a large enough effect in the repeat runs; inconclusive = weak or mixed curves; inactive = no such curve, though single readings can be large or run the other way.
Classes to choose from: 1 (yes) for active, 0 (no) for inactive

Would you please look over these solved cases?
>  <compound>
Cc1cc(Cl)ccc1OCCCC(=O)O

>  <label>
0 (no)

$$$$
>  <compound>
Cc1cc(C)cc(C)c1

>  <label>
0 (no)

$$$$
>  <compound>
O=[N+]([O-])c1cccc2ccccc12

>  <label>
0 (no)

$$$$
>  <compound>
C=CC(=O)OCCO

>  <label>
0 (no)

$$$$
>  <compound>
CCCCN(CC)c1c([N+](=O)[O-])cc(C(F)(F)F)cc1[N+](=O)[O-]

>  <label>
0 (no)

$$$$

Tell me the recorded outcome of this test for O=[N+]([O-])c1ccc(O)c([N+](=O)[O-])c1 .
0 (no)

Try this compound next: CCC(=O)O[C@H]1CC[C@H]2[C@@H]3CCC4=CC(=O)CC[C@]4(C)[C@H]3CC[C@]12C
0 (no)

Try this compound next: CCN(CC)C(=O)/C(Cl)=C(\C)OP(=O)(OC)OC
0 (no)

Try this compound next: c1ccc(P(c2ccccc2)c2ccccc2)cc1
0 (no)

Try this compound next: Nc1ccncc1
0 (no)

Try this compound next: CCCCCCCCCCCOC(=O)c1ccccc1C(=O)OCCCCCCCCCCC
0 (no)

Try this compound next: CC(C)C(=O)OCC(C)(C)C(OC(=O)C(C)C)C(C)C (stereo not drawn)
0 (no)

Try this compound next: C=CCN(CC=C)C(=O)C(Cl)Cl
0 (no)

Try this compound next: CCC(C)(C)c1ccc(O)cc1
0 (no)

Try this compound next: COc1ccc(C=O)cc1
0 (no)

Try this compound next: Cc1ccccc1[N+](=O)[O-]
0 (no)

Try this compound next: OCC(O)CO
0 (no)

====

experiment: qHTS assay for small molecule agonists of the antioxidant response element (ARE) signaling pathway (AID 743202); settings: HepG2 ARE-bla reporter, beta-lactamase FRET, 16 h; series mostly up to 73.3 µM; as to activation: % is scaled to controls: 0 for no effect and ±100 for the full control effect
Inconclusive results are not listed. Calls of active or inactive are those of the source. Calls follow the shape of the dose curve; as a rule, active = well fitted activation curve with a large enough effect in the signal ratio in the repeat runs (not every such curve was filed as active); inconclusive = weak or mixed curves, or effect the other way; inactive = no such curve, though single readings can be large or run the other way; the % refers to the signal ratio.
Classes to choose from: yes (1) (active), no (0) (inactive)

Would you please look over these solved cases?
>  <molecule>
C=C(C)[C@H]1Cc2c(ccc3c2O[C@@H]2COc4cc(OC)c(OC)cc4[C@@H]2C3=O)O1

>  <label>
yes (1)

$$$$
>  <molecule>
CCOc1cc(C=O)ccc1O

>  <label>
no (0)

$$$$
>  <molecule>
NNC(=S)NN

>  <label>
no (0)

$$$$

Tell me the recorded outcome of this test for Nc1c(Cl)cc([N+](=O)[O-])cc1Cl .
no (0)

Try this molecule next: Nc1cccnc1
no (0)

Try this molecule next: CC(O)CCO (stereo not given)
no (0)

Try this molecule next: COc1ccc(C(CN(C)C)C2(O)CCCCC2)cc1 (stereo not given)
no (0)

Try this molecule next: Brc1ccc(Oc2cc(Br)c(Br)cc2Br)c(Br)c1
no (0)

Try this molecule next: NC(=S)Nc1ccccc1
no (0)

Try this molecule next: CCCCNC(=O)n1c(NC(=O)OC)nc2ccccc21
no (0)

====

molecular target: Peroxisome proliferator-activated receptor delta (Homo sapiens) (UniProt Q03181); experiment: qHTS assay to identify small molecule antagonists of the peroxisome proliferator-activated receptor delta (PPARd) signaling pathway (AID 743215); details: HEK293H PPARd-UAS-bla, beta-lactamase FRET ratio, antagonist, 17 h; series mostly up to 62 µM;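 also: cells stimulated with agonist L165041 at 300 nM final during compound exposure; % is scaled to controls: 0 for no effect and ±100 for the full control effect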
Sequence (Q03181 whole entry, looked up): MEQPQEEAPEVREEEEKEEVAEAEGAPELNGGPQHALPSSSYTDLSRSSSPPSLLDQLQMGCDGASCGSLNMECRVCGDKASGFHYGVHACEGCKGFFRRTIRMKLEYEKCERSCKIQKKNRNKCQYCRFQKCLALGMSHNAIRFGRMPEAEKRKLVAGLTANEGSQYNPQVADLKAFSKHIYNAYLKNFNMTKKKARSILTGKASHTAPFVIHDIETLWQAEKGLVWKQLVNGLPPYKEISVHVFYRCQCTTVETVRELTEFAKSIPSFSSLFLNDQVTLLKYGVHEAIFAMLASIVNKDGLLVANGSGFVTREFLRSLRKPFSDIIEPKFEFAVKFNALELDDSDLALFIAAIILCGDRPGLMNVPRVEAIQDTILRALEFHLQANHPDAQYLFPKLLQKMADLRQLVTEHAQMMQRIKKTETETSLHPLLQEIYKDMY
Inconclusive results are not listed. The source made the active and inactive calls. Calls come from the whole dose curve; as a rule, active = well fitted inhibition curve with a large enough effect in the signal ratio in the repeat runs (not every such curve was filed as active); inconclusive = weak or mixed curves, or effect the other way; inactive = no such curve, though single readings can be large or run the other way; the % refers to the signal ratio.
resultType: outcome

Would you please look over these solved cases?
>  <compound>
CCC(CC)Nc1c([N+](=O)[O-])cc(C)c(C)c1[N+](=O)[O-]

>  <experimentalValue>
inactive

$$$$
>  <compound>
C=C(C)C(=O)OCC1CO1 (configuration not stated)

>  <experimentalValue>
inactive

$$$$
>  <compound>
O=[N+]([O-])c1c(Cl)c(Cl)c(Cl)c(Cl)c1Cl

>  <experimentalValue>
inactive

$$$$
>  <compound>
CC(C)NC(C)C

>  <experimentalValue>
inactive

$$$$

Given the entry CC(C)C(=O)OCC(C)(C)C(OC(=O)C(C)C)C(C)C (configuration not stated) , report its measured outcome.
inactive

Try this compound next: c1ccc(P(c2ccccc2)c2ccccc2)cc1
inactive

Try this compound next: OCC(O)CO
inactive

====

assay: qHTS assay to identify small molecule antagonists of the estrogen related receptor signaling pathway with the pleiotropic PPARgamma coactivator (PGC) from Tox21 10K library (AID 1224841); conditions: PGC/ERR reporter cell line, ONE-Glo luciferase, 18 h; series mostly up to 92.4 µM; also: actives are mostly falling curves and most rising ones were filed inactive; nearly all actives have a fitted effect of over 50% in size
Inconclusive results are not listed. Calls of active or inactive are those of the source. How the calls were made is not given here.
Classes to choose from: active, inactive

>  <smilesStr>
Cc1ccc(OP(=O)(Oc2ccc(C)cc2)Oc2ccc(C)cc2)cc1

>  <label>
inactive

$$$$
>  <smilesStr>
Nc1ccc(Cl)cc1N

>  <label>
inactive

$$$$
>  <smilesStr>
Nc1ccc(Cl)c(Cl)c1

>  <label>
inactive

$$$$

Tell me the recorded outcome of this test for CCC(CC)Nc1c([N+](=O)[O-])cc(C)c(C)c1[N+](=O)[O-] .
inactive

Try this compound next: CC(C)c1ccc(CO)cc1
inactive

Try this compound next: Brc1ccc(Oc2cc(Br)c(Br)cc2Br)c(Br)c1
inactive

Try this compound next: Oc1cc(Cl)ccc1Oc1ccc(Cl)cc1Cl
active

Try this compound next: O=S(=O)(Oc1ccc(Cl)cc1)c1ccc(Cl)cc1
inactive
